Origin of values: PubChem BioAssay AID179

Answer each item with its documented IC50.
test system: CEM cells HIV-1 protection, formazan growth assay; assay: NCI AIDS Antiviral Assay; conditions: measured here: growth of uninfected CEM cells
Give bare numbers, in µM.

The cases that follow already have their IC50 on record.
• CN1CN(c2ccccc2)C2(CCN(CCCN(C)c3ccc(F)cc3)CC2)C1=O = 35.5
• Cc1nc2c(=S)nc[nH]c2n1Nc1ccccc1 = 72.4
• COc1ccc(Nc2cc(N)nc(N)n2)c(=S)[nH]1 = 57.5
• Cc1ccc([N+](=O)[O-])cc1NC1=NCCO1 = 186

Let us move to another entry and its IC50.
For the compound shown here, CC(=O)O/N=C/c1ncccc1CO , give the reported IC50.
389

* * *

system: CEM cells HIV-1 protection, formazan growth assay; assay: NCI AIDS Antiviral Assay
measured_endpoint: EC50

As a guide, the following entries are already answered.
• O=C(N/N=C/c1cc(-c2ccccc2Cl)c(-c2ccccc2Cl)o1)c1ccncc1 = > 12 µM
• CCCCN=C(OC1C=CCCC1)SC (stereo not given) = > 200 µM
• CC([C@H]1CCC2[C@@H]3CCC4C(=O)C(NC(=O)c5ccccc5)=CC[C@]4(C)C3CC[C@@]21C)N(C)C (stereo not given in full) = > 4.37 µM
• Oc1ccc(/C=C/c2cc(O)cc3c2[C@@H](c2cc(O)cc4c2[C@H](c2cc(O)cc5c2[C@@H](c2cc(O)cc(O)c2)[C@H](c2ccc(O)cc2)O5)[C@@H](c2ccc(O)cc2)O4)[C@H](c2ccc(O)cc2)O3)cc1 = 12.3 µM
• CCn1nc(C)c2c1C(=O)NC(C)C(=O)N2 (stereo not given) = > 200 µM
• Cc1ccc(S(=O)(=O)NCCSCCNS(=O)(=O)c2ccc(C)cc2)cc1 = > 575 µM
• CC(=O)OC1CC2CCC3C(CCC4(C)C3CC([N+]3(C)CCCCC3)C4OC(C)=O)C2(C)CC1[N+]1(C)CCCCC1 (stereo not given) = > 200 µM
• O=[N+]([O-])c1c(Cl)cccc1-c1c[nH]cc1Cl = > 263 µM

Batch request: EC50 per item, same order as input.
1. CCOC(=O)C(=O)Nc1ccccc1C
2. CCC[C@H]1C(=O)N=C(N)N1C(=O)OCc1ccccc1

1: > 34.7 µM; 2: > 200 µM

* * *

Tested on: CEM cells HIV-1 protection, formazan growth assay
Test: NCI AIDS Antiviral Assay
Description: The ability of compounds to protect human CEM cells from HIV-1 infection is measured as a screen for new compounds capable of inhibiting the HIV virus. Five concentrations of drug were tested on uninfected and infected cells and cell growth was measured using a soluble formazan assay. […] Compounds that provided at least 50% protection were retested. Compounds that provided at least 50% protection on retest were listed as moderately active. […]
Consider the following compounds; for each one, report its EC50.

Use the examples below as a reference point.
- CCN=C(NC(=O)c1ccc(Cl)cc1)SCSC(=NCC)NC(=O)c1ccc(Cl)cc1: > 200 µM
- C=C(NC(=O)C(=C)NC(=O)c1ccc2c(n1)-c1coc(n1)C(=C)NC(=O)C(=C)NC(=O)c1nc(oc1C)C(=C)NC(=O)C(C(C)(C)O)NC(=O)C(=C)NC(=O)c1coc(n1)/C(=C/C)NC(=O)[C@H]([C@@H](C)O)NC(=O)c1csc-2n1)C(N)=O (stereo partly drawn): > 100 µM

# next compound below
Notebook entry, CEM cells HIV-1 protection, formazan growth assay assay: EC50 of CC(C)(C)c1ccc(-n2c3nc(=O)n(-c4ccccc4CO)c(=O)c-3cc3ccccc32)cc1 = ?
> 200 µM
